Where do these numbers come from? They come from patent US7288256B1.

System: human IgE
ASSAY NAME: Direct binding ELISA of IgE to mite allergen proteins and peptides (Examples XIII, XV)
MEASUREMENT CONTEXT: pooled human plasma from 20 mite skin test positive patients; coating antigen 5 μg/ml; FIGS. 19-21
MEASURE NAME: IgE binding in direct ELISA

// below: answered molecules
- MOLECULE: "biochemically purified Der f II: Group II protein allergen of Dermatophagoides farinae, immunoaffinity purified native form (protein) DQVDVKDCANNEIKKVMVDGCHGSDPCIIHRGKPFTLEALFDANQNTKTAKTEIKASLDGLEIDVPGIDTNACHFMKCPLVKGQQYDAKYTWNVPKIAPKSENVVVTVKLVGDNGVLACAIATHAKIRD"
  RESULT: "binding"
- MOLECULE: "rDer p II: recombinant Der p II expressed in E. coli as His6 fusion (protein) MGHHHHHHEFDQVDVKDCANHEIKKVLVPGCHGSEPCIIHRGKPFQLEAVFEANQNTKTAKIEIKASIDGLEVDVPGIDPNACHYMKCPLVKGQQYDIKYTWNVPKIAPKSENVVVTVKVMGDDGVLACAIATHAKIRD"
  RESULT: "good binding"
- MOLECULE: "Der p II: Group II protein allergen of Dermatophagoides pteronyssinus, immunoaffinity purified native form (protein) DQVDVKDCANHEIKKVLVPGCHGSEPCIIHRGKPFQLEAVFEANQNTKTAKIEIKASIDGLEVDVPGIDPNACHYMKCPLVKGQQYDIKYTWNVPKIAPKSENVVVTVKVMGDDGVLACAIATHAKIRD"
  RESULT: "good binding"
- MOLECULE: "recombinant Der f II: recombinant Der f II expressed in E. coli as His6 fusion (protein) MGHHHHHHEFDQVDVKDCANNEIKKVMVDGCHGSDPCIIHRGKPFTLEALFDANQNTKTAKTEIKASLDGLEIDVPGIDTNACHFMKCPLVKGQQYDAKYTWNVPKIAPKSENVVVTVKLVGDNGVLACAIATHAKIRD"
  RESULT: "binding"

Read the next record carefully.
Query string: Identify IgE binding in direct ELISA associated with the molecule biochemically purified Der f I: Group I protein allergen of Dermatophagoides farinae, immunoaffinity purified native form (protein) TSACRINSVNVPSELDLRSLRTVTPIRMQGGCGSCWAFSGVAATESAYLAYRNTSLDLSEQELVDCASQHGCHGDTIPRGIEYIQQNGVVEERSYPYVAREQRCRRPNSQHYGISNYCQIYPPDVKQIREALTQTHTAIAVIIGIKDLRAFQHYDGRTIIQHDNGYQPNYHAVNIVGYGSTQGDDYWIVRNSWDTTWGDSGYGYFQAGNNLMMIEQYPYVVIM
Result string: binding
